# targetUnderTest: T1, Copenhagen B5 on cells infected with VVCopenhagen (YFP) virus (Vaccinia virus, Copenhagen strain, UniProt P21115 18-317)
# T1 construct: also called VV B5
# assayProtocol: flow cytometry, HT29 cells infected with Copenhagen VV
EC50 overview
Number only, in nM; omit the unit.

{"binder": "A048-H2L1 (antibody, V domains shown) VH: EVQLLESGGGLVQPGGSLRLSCAASGFSFSSSYYMCWVRQAPGKGLEWIACIYTSSGSAYYANWAKGRFTISRTSSTTVTLQMNSLRAEDTAVYYCVRNAVGSSYYLYLWGQGTLVTVSS VL: DIQMTQSPSTLSASVGDRVTITCQASQSVAGNNYLSWYQQKPGKAPKLLIYSVSTLASGVPSRFSGSGSGTEFTLTISSLQPDDFATYYCQGYYNDGIWAFGQGTKVEIK", "units": "nM", "endpointValue": 1.48}
{"binder": "A048-H4L2 (antibody, V domains shown) VH: EVQLLESGGGLVQPGGSLRLSCAASGFSFSSSYYMCWVRQAPGKGLEWIACIYTSSGSAYYADSVKGRFTISRTSSTTVTLQMNSLRAEDTAVYYCVRNAVGSSYYLYLWGQGTLVTVSS VL: AQVLTQSPSTLSASVGDRVTITCQASQSVAGNNYLSWYQQKPGKAPKLLIYSVSTLASGVPSRFSGSGSGTEFTLTISSLQPDDFATYYCQGYYNDGIWAFGQGTKVEIK", "units": "nM", "endpointValue": 1.78}

Consider now this further binder.
Q: Tell me the measured EC50 of A048-H1L2 (antibody, V domains shown) VH: EVQLLESGGGLVQPGGSLRLSCAASGFSFSSSYYMCWVRQAPGKGLEWIACIYTSSGSAYYANWAKGRFTISRDNSKNTLYLQMNSLRAEDTAVYYCVRNAVGSSYYLYLWGQGTLVTVSS VL: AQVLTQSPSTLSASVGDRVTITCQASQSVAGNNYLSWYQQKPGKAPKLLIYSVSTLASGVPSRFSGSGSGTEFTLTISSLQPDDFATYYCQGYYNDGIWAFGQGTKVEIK , please.
A: 0.77

// data source = patent US20240309070A1
